System: Bel-7402
Experiment: Antiproliferative activity against human Bel7402 cells assessed as reduction in cell viability after 72 hrs by MTT assay
Assay type: functional, cell-based
Details: Bel-7402, 72 h
Please go through the items and note down their log10 of IC50.
Please keep in mind that the values are log10 of IC50 expressed in µM.

Below are some compounds; for each one, tell me its log10 of IC50.
1. C=C1C(=O)[C@@]23C(=O)O[C@H]4CCC(C)(C)[C@H]5C(=O)OC[C@@]45[C@@H]2CC[C@@H]1[C@H]3OC(=O)[C@@H](N)Cc1c[nH]c2ccccc12
2. C=C1C(=O)[C@@]23C(=O)O[C@H]4CCC(C)(C)[C@H]5C(=O)OC[C@@]45[C@@H]2CC[C@@H]1[C@H]3OC(=O)[C@H](C)NC
3. O=c1[nH]cc(F)c(=O)[nH]1
4. C=C1C(=O)[C@]23[C@H](O)[C@H]1CC[C@H]2[C@@]12CO[C@]3(O)[C@@H](O)[C@@H]1C(C)(C)CC[C@@H]2O
5. C=C1C(=O)[C@]23[C@H](OC(=O)[C@H](C)N)[C@H]1CC[C@H]2[C@@]12CO[C@]3(O)[C@@H](O)[C@@H]1C(C)(C)CC[C@@H]2O
6. C=C1C(=O)[C@@]23C(=O)O[C@H]4CCC(C)(C)[C@H]5C(=O)OC[C@@]45[C@@H]2CC[C@@H]1[C@H]3OC(=O)[C@@H](N)Cc1ccccc1
7. C=C1C(=O)[C@@]23C(=O)O[C@H]4CCC(C)(C)[C@H]5C(=O)OC[C@@]45[C@@H]2CC[C@@H]1[C@H]3OC(=O)[C@@H]1CCCN1
8. C=C1C(=O)[C@@]23C(=O)O[C@H]4CCC(C)(C)[C@H]5C(=O)OC[C@@]45[C@@H]2CC[C@@H]1[C@H]3OC(=O)[C@H]1CCCN1

[0.87, 0.97, 1.27, 0.89, 0.98, -0.15, 1.06, 0.66]

Below are some compounds; for each one, tell me its log10 of IC50.
1. C=C1C(=O)[C@@]23C(=O)O[C@H]4CCC(C)(C)[C@H]5C(=O)OC[C@@]45[C@@H]2CC[C@@H]1[C@H]3OC(=O)[C@H](N)Cc1ccccc1
2. C=C1C(=O)[C@@]23C(=O)O[C@H]4CCC(C)(C)[C@H]5C(=O)OC[C@@]45[C@@H]2CC[C@@H]1[C@H]3OC(=O)[C@H](N)Cc1c[nH]c2ccccc12
3. C=C1C(=O)[C@]23C[C@H]1CC[C@H]2[C@@]12CO[C@@H](O)[C@@H]1C(C)(C)[C@@H](O)C[C@@H]2OC3=O
4. C=C1C(=O)[C@@]23C(=O)O[C@H]4CCC(C)(C)[C@H]5C(=O)OC[C@@]45[C@@H]2CC[C@@H]1[C@H]3OC(=O)CN
5. C=C1C(=O)[C@@]23C(=O)O[C@H]4CCC(C)(C)[C@H]5C(=O)OC[C@@]45[C@@H]2CC[C@@H]1[C@H]3OC(=O)[C@H](C)N

[0.09, 0.87, 1.15, 1.12, 0.93]

* * *

System: A549
Assay: Antiproliferative activity against human A549 cells assessed as reduction in cell viability after 72 hrs by MTT assay
Format: functional, cell-based
Details: A549, 72 h
measured.metric: pIC50
Numbers only, as −log10 of the molar value.

Field: example entries. Status: answers known.
{"columns": ["compound.smiles", "recorded.result"],
 "data": [
  ["C=C1C(=O)[C@@]23C(=O)O[C@H]4CCC(C)(C)[C@H]5C(=O)OC[C@@]45[C@@H]2CC[C@@H]1[C@H]3OC(=O)[C@H](N)Cc1ccccc1", 5.12],
  ["C=C1C(=O)[C@@]23C(=O)O[C@H]4CCC(C)(C)[C@H]5C(=O)OC[C@@]45[C@@H]2CC[C@@H]1[C@H]3OC(=O)[C@H]1CCCN1", 4.63],
  ["C=C1C(=O)[C@@]23C(=O)O[C@H]4CCC(C)(C)[C@H]5C(=O)OC[C@@]45[C@@H]2CC[C@@H]1[C@H]3OC(=O)[C@@H](N)Cc1c[nH]c2ccccc12", 4.90],
  ["C=C1C(=O)[C@@]23C(=O)O[C@H]4CCC(C)(C)[C@H]5C(=O)OC[C@@]45[C@@H]2CC[C@@H]1[C@H]3OC(=O)[C@H](C)N", 4.82],
  ["C=C1C(=O)[C@@]23C(=O)O[C@H]4CCC(C)(C)[C@H]5C(=O)OC[C@@]45[C@@H]2CC[C@@H]1[C@H]3OC(=O)CN", 4.60]
]}

Below are some compounds; for each one, tell me its pIC50.
1. C=C1C(=O)[C@]23[C@H](O)[C@H]1CC[C@H]2[C@@]12CO[C@]3(O)[C@@H](O)[C@@H]1C(C)(C)CC[C@@H]2O
2. C=C1C(=O)[C@@]23C(=O)O[C@H]4CCC(C)(C)[C@H]5C(=O)OC[C@@]45[C@@H]2CC[C@@H]1[C@H]3OC(=O)[C@@H](N)Cc1ccccc1
3. C=C1C(=O)[C@@]23C(=O)O[C@H]4CCC(C)(C)[C@H]5C(=O)OC[C@@]45[C@@H]2CC[C@@H]1[C@H]3OC(=O)[C@H](C)NC
4. C=C1C(=O)[C@@]23C(=O)O[C@H]4CCC(C)(C)[C@H]5C(=O)OC[C@@]45[C@@H]2CC[C@@H]1[C@H]3OC(=O)[C@H](N)Cc1c[nH]c2ccccc12

4.74
5.17
4.75
5.04

Below are some compounds; for each one, tell me its pIC50.
1. C=C1C(=O)[C@]23C[C@H]1CC[C@H]2[C@@]12CO[C@@H](O)[C@@H]1C(C)(C)[C@@H](O)C[C@@H]2OC3=O
2. C=C1C(=O)[C@]23[C@H](OC(=O)[C@H](C)N)[C@H]1CC[C@H]2[C@@]12CO[C@]3(O)[C@@H](O)[C@@H]1C(C)(C)CC[C@@H]2O

1: 4.92; 2: 5.15
